# System: Staph. aureus 1777 E
# EXPERIMENTAL_DETAILS: MIC, liquid medium test tube series dilution test
# Assay type: cell-based, Staphylococcus aureus
# CONDITION_INFO: 24 hours, 37°C
# Procedure: The chemotherapeutic activity of the new penicillins was tested in vivo and in vitro. The in vitro inhibition values (MIC = minimum inhibition concentration (see Tables 1 and 2) were determined in a liquid medium in the test tube series dilution test, with readings being taken after 24 hours' incubation at 37°C. The MIC is indicated by the non-turbid test tube in the dilution series. A complete medium of the following composition was used as the nutrient medium: […]
PROPERTY: MIC (units/ml)
Express it in units/ml; write the number only.

INSERT INTO measurements (compound, recorded_number) VALUES
  ('C=CCOC(=O)N(C)C(=O)N[C@@H](C(=O)N[C@@H]1C(=O)N2[C@@H]1SC(C)(C)[C@@H]2C(=O)O)c1ccccc1', 50),
  ('CSc1ccc(C(NC(=O)N2CCNC2=O)C(=O)N[C@@H]2C(=O)N3[C@@H]2SC(C)(C)[C@@H]3C(=O)O)cc1 (stereo partly shown) [Example 54]', 200),
  ('CC1(C)S[C@@H]2[C@H](NC(=O)C(NC(=O)N3CCNC3=O)c3ccc(Cl)cc3)C(=O)N2[C@H]1C(=O)O (stereo partly shown)', 200),
  ('Cc1ccc(C(NC(=O)N2CCNC2=O)C(=O)N[C@@H]2C(=O)N3[C@@H]2SC(C)(C)[C@@H]3C(=O)O)cc1 (stereo partly shown) [Example 46]', 200),
  ('CN(C(=O)N[C@@H](C(=O)N[C@@H]1C(=O)N2[C@@H]1SC(C)(C)[C@@H]2C(=O)O)c1ccccc1)C(=O)c1ccccc1', 100);

Lab note: Cc1ccc(C(NC(=O)N2CCNC2=O)C(=O)N[C@@H]2C(=O)N3[C@@H]2SC(C)(C)[C@@H]3C(=O)O)cc1 (stereo partly shown) [Example 45] gave MIC of 400

Data origin: patent US3974140A
